biological target: DLG2_3, Q15700; experiment: holdup assay; parameters: key: below the threshold = too weak to quantify, mostly under pKd 3.1 to 4; details: plain residues with an end cap or a label only (N-terminal biotin on a linker: ado-ado)
assayReadout: pKd

Below, each entry is followed by its recorded pKd result.
GTGYDRKDYV [CLDN3, O15551]	below the threshold
DPAESMESLV [PTPRG, P23470]	below the threshold
EPQYQPGENL [SRC, P12931]	below the threshold
TRKRSGEAAV [PFKM, P08237]	below the threshold
NIAESLESLV [PTPRZ1, P23471]	below the threshold
KSRVAFFEEL [NF2, P35240;P35240-1]	below the threshold
MHIQEKGFHV [EPHA6, Q9UF33]	below the threshold
SRSVVESDEL [MYPN, Q86TC9]	below the threshold
QSYPSKHDYV [CLDN18, P56856]	below the threshold

Continue with the binder presented below.
The recorded pKd for LKDDELKTKL [SLCO1A2, P46721] is below the threshold
